The origin of these recorded values is patent US20260206753A1.

test system: Echinochloa crus-galli (ECHCG); test: Post-emergence herbicide test, glasshouse pots; assay type: in vivo; conditions: sprayed after 8 days cultivation, 1000 g/ha, evaluated after 13 days
property: ECHCG, percentage damage caused to the plant (five-point scale)

Example compounds with recorded ECHCG, percentage damage caused to the plant (five-point scale):
>>> observed_result("CCn1cc(-c2ccc(Cl)cc2)c(=O)c(C(=O)O)c1-c1ccc(Cl)c(Cl)c1 [Compound 1]")
"4 (4=61-80%)"
>>> observed_result("CCn1cc(-c2cc(C(=O)OC(C)C)ccc2F)c(=O)c(C(=O)O)c1-c1ccc(Cl)c(Cl)c1 [Compound 8]")
"3 (3=41-60%)"
>>> observed_result("CCn1cc(-c2cc(OC(F)(F)F)ccc2F)c(=O)c(C(=O)O)c1-c1ccc(Cl)c(Cl)c1 [Compound 5]")
"4 (4=61-80%)"

Per the records, this compound ( CCn1cc(-c2ccc(Cl)cc2F)c(=O)c(C(=O)O)c1-c1ccc(Cl)c(Cl)c1 [Compound 2] ) has ECHCG, percentage damage caused to the plant (five-point scale) equal to 4 (4=61-80%)

* * *

Consider the following molecules and their measured ECHCG, percentage damage caused to the plant (five-point scale) readings.
test system: Echinochloa crus-galli (ECHCG); assay: Pre-emergence herbicide test, glasshouse pots; assay type: in vivo; conditions: 1000 g/ha, evaluated after 13 days

>>> observed_result("CCn1cc(-c2ccc(Cl)cc2F)c(=O)c(C(=O)O)c1-c1ccc(Cl)c(Cl)c1 [Compound 2]")
"5 (5=81-100%)"
>>> observed_result("CCn1cc(-c2cc(C(=O)OC(C)C)c(Cl)cc2F)c(=O)c(C(=O)O)c1-c1ccc(Cl)c(Cl)c1 [Compound 6]")
"5 (5=81-100%)"
>>> observed_result("CCn1cc(-c2cccc(OC(F)(F)F)c2F)c(=O)c(C(=O)O)c1-c1ccc(Cl)c(Cl)c1 [Compound 11]")
"3 (3=41-60%)"
>>> observed_result("CCn1cc(-c2cc(OC(F)(F)F)ccc2F)c(=O)c(C(=O)O)c1-c1ccc(Cl)c(Cl)c1 [Compound 5]")
"5 (5=81-100%)"
>>> observed_result("CCn1cc(-c2cc(OC(F)(F)F)ccc2Cl)c(=O)c(C(=O)O)c1-c1ccc(Cl)c(Cl)c1 [Compound 7]")
"4 (4=61-80%)"
>>> observed_result("CCn1cc(-c2ccc(Cl)cc2)c(=O)c(C(=O)O)c1-c1ccc(Cl)c(Cl)c1 [Compound 1]")
"5 (5=81-100%)"

Switching to the query record.
Documented ECHCG, percentage damage caused to the plant (five-point scale) of CCn1cc(-c2cc(C(=O)OC(C)C)ccc2F)c(=O)c(C(=O)O)c1-c1ccc(Cl)c(Cl)c1 [Compound 8] : 5 (5=81-100%)

* * *

Measured AMARE, percentage damage caused to the plant (five-point scale), listed per entry for reference.
tested on: Amaranthus retoflexus (AMARE); assay: Pre-emergence herbicide test, glasshouse pots; format: in vivo; details: 1000 g/ha, evaluated after 13 days

Examples from the recorded data:
>>> observed_result("CCn1cc(-c2ccc(Cl)cc2)c(=O)c(C(=O)O)c1-c1ccc(Cl)c(Cl)c1")
0
>>> observed_result("CCn1cc(-c2cc(C(=O)OC(C)C)ccc2F)c(=O)c(C(=O)O)c1-c1ccc(Cl)c(Cl)c1")
"3 (3=41-60%)"

Lookup result for CCn1cc(-c2ccc(Cl)cc2F)c(=O)c(C(=O)O)c1-c1ccc(Cl)c(Cl)c1 ; measured AMARE, percentage damage caused to the plant (five-point scale): 1 (1=0-20%)

Kindly note the recorded AMARE, percentage damage caused to the plant (five-point scale) for CCn1cc(-c2cc(C(=O)OC(C)C)c(Cl)cc2F)c(=O)c(C(=O)O)c1-c1ccc(Cl)c(Cl)c1 , which is 5 (5=81-100%)

* * *

Quick reference: AMARE, percentage damage caused to the plant (five-point scale) of the listed items.
test system: Amaranthus retoflexus (AMARE); assay: Pre-emergence herbicide test, glasshouse pots; format: in vivo; conditions: 1000 g/ha, evaluated after 13 days

>>> observed_result("CCn1cc(-c2cc(OC(F)(F)F)ccc2Cl)c(=O)c(C(=O)O)c1-c1ccc(Cl)c(Cl)c1")
"4 (4=61-80%)"

The recorded AMARE, percentage damage caused to the plant (five-point scale) for entry CCn1cc(-c2cc(OC(F)(F)F)ccc2F)c(=O)c(C(=O)O)c1-c1ccc(Cl)c(Cl)c1 equals 3 (3=41-60%)

Sample CCn1cc(-c2cccc(OC(F)(F)F)c2F)c(=O)c(C(=O)O)c1-c1ccc(Cl)c(Cl)c1 ; AMARE, percentage damage caused to the plant (five-point scale) observed: 2 (2=21-40%)

* * *

test system: Echinochloa crus-galli (ECHCG); assay: Post-emergence herbicide test, glasshouse pots; assay type: in vivo; conditions: sprayed after 8 days cultivation, 1000 g/ha, evaluated after 13 days
property: ECHCG, percentage damage caused to the plant (five-point scale)

Field: example entries. Status: answers known.
>>> observed_result("CCn1cc(-c2cc(C(=O)OC(C)C)c(Cl)cc2F)c(=O)c(C(=O)O)c1-c1ccc(Cl)c(Cl)c1 [Compound 6]")
"5 (5=81-100%)"
>>> observed_result("CCn1cc(-c2cc(OC(F)(F)F)ccc2Cl)c(=O)c(C(=O)O)c1-c1ccc(Cl)c(Cl)c1 [Compound 7]")
"4 (4=61-80%)"

Tested on Echinochloa crus-galli (ECHCG): CCn1cc(-c2cccc(OC(F)(F)F)c2F)c(=O)c(C(=O)O)c1-c1ccc(Cl)c(Cl)c1 [Compound 11] . Observed ECHCG, percentage damage caused to the plant (five-point scale): 4 (4=61-80%)

* * *

test system: Amaranthus palmeri (AMAPA); test: Pre-emergence herbicide test, glasshouse pots; type: in vivo; settings: 1000 g/ha, evaluated after 13 days
AMAPA, percentage damage caused to the plant (five-point scale) reference

>>> observed_result("CCn1cc(-c2cc(OC(F)(F)F)ccc2F)c(=O)c(C(=O)O)c1-c1ccc(Cl)c(Cl)c1")
"4 (4=61-80%)"
>>> observed_result("CCn1cc(-c2cc(C(=O)OC(C)C)ccc2F)c(=O)c(C(=O)O)c1-c1ccc(Cl)c(Cl)c1")
"5 (5=81-100%)"
>>> observed_result("CCn1cc(-c2ccc(Cl)cc2F)c(=O)c(C(=O)O)c1-c1ccc(Cl)c(Cl)c1")
"5 (5=81-100%)"

We next turn to a different compound, shown below.
Note to self: AMAPA, percentage damage caused to the plant (five-point scale) recorded for CCn1cc(-c2cccc(OC(F)(F)F)c2F)c(=O)c(C(=O)O)c1-c1ccc(Cl)c(Cl)c1 was 2 (2=21-40%)
